# System: COLO 205
# Experimental Details: NCI tumour cell line growth inhibition, 48 h
Active and inactive are the calls of the source. Rule as the data show it: active = GI50 up to about 1.1 µM and inactive = higher.
Possible outcomes: yes (1) = active, no (0) = inactive

{"Compound": "Oc1cc(CN2CCOCCOCCOCCOCC2)c(O)cc1CN1CCOCCOCCOCCOCC1", "Study Target": "COLO 205", "Class Label": "no (0)"}
{"Compound": "C=C1CC2C[C@H](OS(=O)(=O)c3ccc(C)cc3)C(C1)N2C (stereo partly specified)", "Study Target": "COLO 205", "Class Label": "no (0)"}
{"Compound": "COC(=O)C(=O)C(C(=O)C(=O)Nc1ccccc1C(N)=O)c1nc2ccc(Cl)cc2nc1O (stereo unspecified)", "Study Target": "COLO 205", "Class Label": "no (0)"}
{"Compound": "CC(C)/C(Cl)=N\\OC(=O)NNc1ccccc1", "Study Target": "COLO 205", "Class Label": "yes (1)"}
{"Compound": "NCCCCCS(=O)(=O)O", "Study Target": "COLO 205", "Class Label": "no (0)"}
{"Compound": "CC(C)(Cl)C(Br)CCC(Br)(CCl)C(Cl)CBr (stereo unspecified)", "Study Target": "COLO 205", "Class Label": "no (0)"}

Every entry's value here was drawn from ChEMBL document CHEMBL1201862.
